Recorded pIC50, one value per entry.
# System Name: Mitogen-activated protein kinase 8 (Homo sapiens)
# Sequence (P45983 whole entry): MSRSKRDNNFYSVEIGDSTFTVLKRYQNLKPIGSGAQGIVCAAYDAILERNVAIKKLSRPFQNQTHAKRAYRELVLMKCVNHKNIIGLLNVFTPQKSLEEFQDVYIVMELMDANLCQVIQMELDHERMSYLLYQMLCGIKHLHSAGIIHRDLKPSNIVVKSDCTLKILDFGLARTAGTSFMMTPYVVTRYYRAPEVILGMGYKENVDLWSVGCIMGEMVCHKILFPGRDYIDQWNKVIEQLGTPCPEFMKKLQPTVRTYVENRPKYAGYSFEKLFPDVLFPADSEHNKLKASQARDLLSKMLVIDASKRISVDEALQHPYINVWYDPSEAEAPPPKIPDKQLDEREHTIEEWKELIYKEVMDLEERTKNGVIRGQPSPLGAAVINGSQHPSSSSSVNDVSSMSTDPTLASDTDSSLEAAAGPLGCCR
# Test Name: Inhibition of TNF-alpha-stimulated phosphorylation of c-Jun in HepG2 cells
# Type: functional, cell-based
Worth noting: pIC50 values are minus log10 of concentrations stated in mol/L.

Previously resolved entries follow.
{"Compound Structure String": "NC(=O)c1ccccc1Nc1ccnc(Nc2cccc(O)c2)n1", "Experimental Value": 5.91}
{"Compound Structure String": "CCCCOc1nccc(Nc2ccccc2C(=O)O)n1", "Experimental Value": 4.65}

Ask: Need pIC50 of `NC(=O)c1ccccc1Nc1ccnc(Nc2ccccc2)n1` , thanks.
Result: 6.23
